pIC50: −log10 of the molar value.
Read-out record for UniProt:Q93009: pIC50

compound: Cc1cc(Cl)cc(-c2ccnc3cc(Cn4c(=O)ccn(CC(F)(F)F)c4=O)sc23)c1CN1CCCNCC1=O [Example 256]
pIC50: 7.00 to 8.00
//
compound: Cc1cc(Cl)cc(-c2ncnc3cc(CN4C(=O)C5C(C4=O)C5(C)C)sc23)c1C[C@@H]1CN(C(=O)C(F)(F)F)CCO1 (some centres unmarked) [Example 201]
pIC50: 7.00 to 8.00
//
compound: CN1CC(=O)N(Cc2cc3nccc(-c4cc(Cl)cc(Cl)c4CC4CNCCO4)c3s2)C1=O (centres unmarked) [Example 141]
pIC50: > 8.00
//
compound: Cc1cc(Cl)cc(-c2ncnc3cc(CN4C(=O)CSC4=O)sc23)c1CC1CNCCO1 (centres unmarked) [Example 171]
pIC50: > 8.00
//
compound: Cc1cc(Cl)cc(-c2ccnc3c(F)c(CN4C(=O)CC[C@@H]4CF)sc23)c1C[C@@H]1CNCCO1 [Example 149]
pIC50: 7.00 to 8.00
//
compound: Cc1cc(Cl)cc(-c2ccnc3cc(CN4C(=O)CN(C)C4=O)sc23)c1CC1CNCCO1 (centres unmarked) [Example 117]
pIC50: > 8.00
//
compound: Cc1cc(Cl)cc(-c2ncnc3cc(CN4C(=O)C5CC5C4=O)sc23)c1CC1CNCCS1 (centres unmarked) [Example 186]
pIC50: > 8.00
//
compound: Cc1cc(Cl)cc(-c2ncnc3cc(CN4C(=O)C5C(C4=O)C5(C)C)sc23)c1CN1CCNC[C@@H]1C (some centres unmarked) [Example 50]
pIC50: > 8.00
//
compound: Cc1cc(Cl)cc(-c2ccnc3cc(CN4C(=O)CCC4=O)sc23)c1CN1C[C@H](C)N[C@@H](C)C1 [Example 25]
pIC50: > 8.00
//
compound: C[C@H]1CNCCN1Cc1c(F)cccc1-c1ncnc2cc(CN3C(=O)C4CC4C3=O)sc12 (some centres unmarked) [Example 72]
pIC50: < 7.00
//
compound: Cc1cc(Cl)cc(-c2ncnc3cc(CN4CC(CO)CC4=O)sc23)c1C[C@@H]1CNCC(C)(C)O1 (some centres unmarked) [Example 231]
pIC50: 7.00 to 8.00
//
compound: Cc1cc(Cl)cc(-c2ncnc3cc(CN4C(=O)CN(C)C4=O)sc23)c1CC1CNCCO1 (centres unmarked) [Example 177]
pIC50: > 8.00
//
compound: Cc1cc(Cl)cc(-c2ncnc3cc(CN4C(=O)C5CC5C4=O)sc23)c1CC1CNCCOC1 (centres unmarked) [Example 185]
pIC50: 7.00 to 8.00
//
compound: Cc1cc(Cl)cc(-c2ccnc3c(F)c(CN4C(=O)CCN(C)C4=O)sc23)c1C[C@@H]1CNCCO1 [Example 148]
pIC50: 7.00 to 8.00

====

# measurement target: USP7 (Homo sapiens)
# Sequence (Q93009 whole entry): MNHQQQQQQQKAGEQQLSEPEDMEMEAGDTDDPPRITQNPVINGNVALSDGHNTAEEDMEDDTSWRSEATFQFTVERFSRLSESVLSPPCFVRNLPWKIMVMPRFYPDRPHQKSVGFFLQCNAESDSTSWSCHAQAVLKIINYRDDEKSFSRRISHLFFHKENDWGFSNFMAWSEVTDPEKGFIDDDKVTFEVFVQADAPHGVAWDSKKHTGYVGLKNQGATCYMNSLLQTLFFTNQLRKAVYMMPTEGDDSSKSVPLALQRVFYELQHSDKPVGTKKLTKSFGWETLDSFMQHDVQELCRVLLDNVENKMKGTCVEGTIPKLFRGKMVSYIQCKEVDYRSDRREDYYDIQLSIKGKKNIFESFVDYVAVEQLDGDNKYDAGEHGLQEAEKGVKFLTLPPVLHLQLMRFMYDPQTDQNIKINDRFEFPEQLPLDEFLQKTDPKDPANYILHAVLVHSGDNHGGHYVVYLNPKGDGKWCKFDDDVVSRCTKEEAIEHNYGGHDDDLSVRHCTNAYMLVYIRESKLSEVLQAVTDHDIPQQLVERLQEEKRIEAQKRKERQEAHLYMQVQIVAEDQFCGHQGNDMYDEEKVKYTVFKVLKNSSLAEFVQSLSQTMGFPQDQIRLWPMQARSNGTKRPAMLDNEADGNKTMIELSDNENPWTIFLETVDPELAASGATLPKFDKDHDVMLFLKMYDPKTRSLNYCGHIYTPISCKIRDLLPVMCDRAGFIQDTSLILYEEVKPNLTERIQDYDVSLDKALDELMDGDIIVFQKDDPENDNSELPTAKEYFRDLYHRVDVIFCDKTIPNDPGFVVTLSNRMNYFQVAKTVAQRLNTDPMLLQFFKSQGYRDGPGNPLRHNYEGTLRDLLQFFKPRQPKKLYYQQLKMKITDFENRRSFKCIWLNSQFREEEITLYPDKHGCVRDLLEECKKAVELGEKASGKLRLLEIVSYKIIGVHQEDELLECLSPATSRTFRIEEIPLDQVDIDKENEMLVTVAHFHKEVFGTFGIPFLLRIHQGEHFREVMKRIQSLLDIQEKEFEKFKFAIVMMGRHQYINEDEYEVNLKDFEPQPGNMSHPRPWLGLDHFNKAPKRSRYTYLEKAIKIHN
IC50 by entry:

compound: C[C@@H]1CN(Cc2c(Cl)cc(Cl)cc2-c2ccnc3cc(CN4C(=O)C5CC5C4=O)sc23)[C@@H](C)CN1 (stereo partly drawn) [Example 43]
measurement target: USP7 (Homo sapiens)
IC50: < 0.01 µM
//
compound: Cc1cc(Cl)cc(-c2ccnc3cc(CN4C(=O)CCC4=O)sc23)c1CC1CNCC2(CCC2)O1 (stereo not drawn) [Example 143]
measurement target: USP7 (Homo sapiens)
IC50: < 0.01 µM
//
compound: Cc1cc(C(F)(F)F)cc(-c2ncnc3cc(CN4C(=O)C5CC5C4=O)sc23)c1CN1CCNC[C@@H]1C (stereo partly drawn) [Example 58]
measurement target: USP7 (Homo sapiens)
IC50: 0.01 to 0.1 µM
